measurement.target: human hNET (Homo sapiens)
Construct: expressed in transfected cells
Sequence (P23975 whole entry): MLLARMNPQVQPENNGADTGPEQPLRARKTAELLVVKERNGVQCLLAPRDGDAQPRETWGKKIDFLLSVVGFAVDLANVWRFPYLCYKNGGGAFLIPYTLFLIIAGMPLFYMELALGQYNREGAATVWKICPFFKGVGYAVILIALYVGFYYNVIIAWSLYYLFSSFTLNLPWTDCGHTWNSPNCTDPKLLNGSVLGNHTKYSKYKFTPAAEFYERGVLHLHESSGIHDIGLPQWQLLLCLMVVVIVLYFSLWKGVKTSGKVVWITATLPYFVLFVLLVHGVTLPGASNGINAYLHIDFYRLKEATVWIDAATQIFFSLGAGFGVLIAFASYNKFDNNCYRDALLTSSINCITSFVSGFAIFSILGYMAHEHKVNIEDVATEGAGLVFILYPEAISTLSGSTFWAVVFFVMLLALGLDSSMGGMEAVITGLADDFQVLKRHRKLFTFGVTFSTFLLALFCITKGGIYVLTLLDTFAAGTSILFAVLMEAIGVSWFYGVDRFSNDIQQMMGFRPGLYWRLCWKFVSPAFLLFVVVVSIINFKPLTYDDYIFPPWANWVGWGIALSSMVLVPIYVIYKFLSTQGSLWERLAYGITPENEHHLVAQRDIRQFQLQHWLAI
procedure.text: Norepinephrine (NE) uptake assay
Assay type: cell-based
recorded.conditions: 1 μM test compound; MDCK-Net6 cells stably transfected with human hNET; [3H]NE uptake
Counter-ions that a name gives are not always drawn.
quantity.measured: inhibition at 1 µM (%)

> print(dat)
                                   compound  experimental.result
1  CNC[C@@H](O)[C@H](c1cccc(F)c1)N1CC(C)Oc2ccccc21 (stereo partly shown) [Example 9, hydrochloride]                 53.9
2  CNC[C@H](O)[C@@H](c1ccccc1)N1CCOc2ccc(Cl)cc21 (single isomer, unassigned) [Example 14, hydrochloride]                 41.5

1 = CNC[C@@H](O)[C@H](c1cccc(F)c1)N1C[C@H](c2ccccc2)Oc2ccccc21 (single isomer, unassigned) [Example 21, hydrochloride]
2 = CNC[C@@H](O)[C@H](c1cccc(F)c1)N1CC(C)(C)Oc2ccccc21 [Example 16, hydrochloride]
**Query** Which of the two gives a bigger number for inhibition at 1 µM: 1 or 2 ? Reply with the label of the item you choose.
**Result** 1
(1: 51.7%, 2: 10%)

Reference source: patent US7638512B2
